Biological target: EPHB1 (UniProt P54762)
Sequence (P54762 whole entry, looked up): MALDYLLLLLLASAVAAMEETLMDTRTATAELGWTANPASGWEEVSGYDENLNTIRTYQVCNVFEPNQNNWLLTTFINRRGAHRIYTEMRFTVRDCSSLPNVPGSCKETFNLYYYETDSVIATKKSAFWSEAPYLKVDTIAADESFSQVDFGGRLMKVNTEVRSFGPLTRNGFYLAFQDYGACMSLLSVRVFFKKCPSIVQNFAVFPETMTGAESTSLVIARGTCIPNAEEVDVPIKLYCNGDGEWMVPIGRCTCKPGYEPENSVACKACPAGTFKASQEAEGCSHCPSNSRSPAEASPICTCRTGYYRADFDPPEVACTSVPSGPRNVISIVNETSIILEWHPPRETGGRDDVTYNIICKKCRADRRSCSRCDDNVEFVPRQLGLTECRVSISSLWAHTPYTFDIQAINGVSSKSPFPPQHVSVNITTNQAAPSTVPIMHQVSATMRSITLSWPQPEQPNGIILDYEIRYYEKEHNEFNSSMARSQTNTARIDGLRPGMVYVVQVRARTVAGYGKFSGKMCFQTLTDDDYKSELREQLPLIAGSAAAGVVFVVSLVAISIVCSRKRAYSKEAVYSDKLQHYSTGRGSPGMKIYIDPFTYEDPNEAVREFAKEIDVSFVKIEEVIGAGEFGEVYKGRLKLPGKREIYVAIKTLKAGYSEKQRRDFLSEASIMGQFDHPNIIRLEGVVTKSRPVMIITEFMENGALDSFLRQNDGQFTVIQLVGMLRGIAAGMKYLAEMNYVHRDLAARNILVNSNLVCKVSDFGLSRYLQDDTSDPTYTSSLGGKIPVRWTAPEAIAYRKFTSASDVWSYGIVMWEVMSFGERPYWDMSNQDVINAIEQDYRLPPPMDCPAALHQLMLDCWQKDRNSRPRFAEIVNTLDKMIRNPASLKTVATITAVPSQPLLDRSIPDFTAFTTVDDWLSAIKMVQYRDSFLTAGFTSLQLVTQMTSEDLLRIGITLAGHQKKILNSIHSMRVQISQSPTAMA
Test: phosphorylation enrichment, bacterial display (enrichment ratio); higher = better substrate or ligand; peptides without Tyr show the background;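 note: 11-residue human phosphosite peptides and single-mutation variants displayed on the E. coli surface, counted by deep sequencing, each peptide's frequency after selection divided by its frequency in the unselected input library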;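 note: frequency after pTyr selection over input frequency; kinase dosed for 20-30% of maximal phosphorylation in three min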
Class class 1: phosphorylation enrichment at least 0.5. Class class 0: phosphorylation enrichment below 0.5.

// inclusive: phosphorylation enrichment at least 0.5? input: FSKTQYNQVPS [CXADR_Y318_YF]
class 0

// inclusive: phosphorylation enrichment at least 0.5? input: VLRRVYVDFEG [KMT2B_Y1707]
class 0

// inclusive: phosphorylation enrichment at least 0.5? input: HSVLQYVGGVM [FGGY_Y136]
class 1

// inclusive: phosphorylation enrichment at least 0.5? input: RCYVYYYSYLL [PTEN_Y177_R173C]
class 1

// inclusive: phosphorylation enrichment at least 0.5? input: HEDPMYDIIRD [RP9_Y142]
class 1

// inclusive: phosphorylation enrichment at least 0.5? input: LGRGKSSEVFE [CSNK2A1_Y50_Y50S]
class 0

// inclusive: phosphorylation enrichment at least 0.5? input: LRNIDYYRLDG [ATRX_Y2083]
class 1

// inclusive: phosphorylation enrichment at least 0.5? input: TSGVVYKARNK [CDK2_Y19_Y15S]
class 0

// inclusive: phosphorylation enrichment at least 0.5? input: HFIKLYEEKTG [PARP1_Y618_M615I]
class 1
